Attribution: patent US9701676B2

In this section, each of the compounds is paired with its reported (×10^−06) BrdU+ cells/mm^3 dentate gyrus.
Test system: proliferating neural precursor cells in the hippocampus (subgranular layer of the dentate gyrus)
PROTOCOL DETAILS: standard in vivo hippocampal neurogenesis assay (BrdU labelling, week-long intracranial mini-pump infusion)
Set-up: species or system mouse (C57/B6)
MEASUREMENT CONTEXT: 10 μM concentration, seven days of infusion at 0.5 μL/hour, daily IP BrdU; four 12 week old adult male C57/B6 mice; vehicle 14.5

Example compounds with recorded (×10^−06) BrdU+ cells/mm^3 dentate gyrus:
{"COMPOUND": "OC(CN1c2ccccc2CCc2ccccc21)Cn1ccc2ccccc21 (centres unmarked) [P7C3-S132]", "(×10^−06) BrdU+ cells/mm^3 dentate gyrus": "22.8 (×10^−06) BrdU+ cells/mm^3"}
{"COMPOUND": "COc1nc(N(C)C)nc2c3cc(Br)ccc3n(C)c12 [P7C3-S275]", "(×10^−06) BrdU+ cells/mm^3 dentate gyrus": "20.5 (×10^−06) BrdU+ cells/mm^3"}
{"COMPOUND": "CCOC(=O)c1ncc2c(n1)c1ccccc1n2S(=O)(=O)c1ccc(C)cc1 [P7C3-S246]", "(×10^−06) BrdU+ cells/mm^3 dentate gyrus": "29 (×10^−06) BrdU+ cells/mm^3"}
{"COMPOUND": "CCOC(=O)c1ncc2[nH]c3ccccc3c2n1 [P7C3-S262]", "(×10^−06) BrdU+ cells/mm^3 dentate gyrus": "18 (×10^−06) BrdU+ cells/mm^3"}
{"COMPOUND": "COc1ccc2[nH]c3ccc(Br)cc3c2c1 [P7C3-S209, 3-bromo-6-methoxy-9H-carbazole]", "(×10^−06) BrdU+ cells/mm^3 dentate gyrus": "30 (×10^−06) BrdU+ cells/mm^3"}
{"COMPOUND": "COc1ccc2[nH]cc(CCNC(C)=O)c2c1 [P7C3-S193, Melatonin, reference compound]", "(×10^−06) BrdU+ cells/mm^3 dentate gyrus": "15.6 (×10^−06) BrdU+ cells/mm^3"}

Below: the item to evaluate.
Qu. Please look up its (×10^−06) BrdU+ cells/mm^3 dentate gyrus: CN(C)C(CF)CN1c2ccccc2CCc2ccccc21 (centres unmarked) [P7C3-S149]
Ans. 23.2 (×10^−06) BrdU+ cells/mm^3

----------
Tested on: proliferating neural precursor cells in the hippocampus (subgranular layer of the dentate gyrus)
PROTOCOL DETAILS: standard in vivo hippocampal neurogenesis assay (BrdU labelling, week-long intracranial mini-pump infusion)
Parameters: species or system mouse (C57/B6)
MEASUREMENT CONTEXT: 10 μM concentration, seven days of infusion at 0.5 μL/hour, daily IP BrdU; four 12 week old adult male C57/B6 mice; vehicle 14.5
READOUT TYPE: (×10^−06) BrdU+ cells/mm^3 dentate gyrus

{"MOLECULE": "Cc1ccc2[nH]c3ccc(Br)cc3c2c1", "(×10^−06) BrdU+ cells/mm^3 dentate gyrus": "40.3 (×10^−06) BrdU+ cells/mm^3"}
{"MOLECULE": "CN(C)CC(F)CN1c2ccccc2CCc2ccccc21 (stereo not shown)", "(×10^−06) BrdU+ cells/mm^3 dentate gyrus": "22.6 (×10^−06) BrdU+ cells/mm^3"}
{"MOLECULE": "O=C(O)c1ccc2[nH]c3ccc(Br)cc3c2c1", "(×10^−06) BrdU+ cells/mm^3 dentate gyrus": "30.4 (×10^−06) BrdU+ cells/mm^3"}

Qu. Please look up its (×10^−06) BrdU+ cells/mm^3 dentate gyrus: OC(CN1c2ccccc2CCc2ccccc21)Cn1c2ccccc2c2ccccc21 (stereo not shown)
Ans. 20.2 (×10^−06) BrdU+ cells/mm^3

Qu. Continue with CN(C)c1nc(O)c2[nH]c3ccc(Br)cc3c2n1
Ans. 28 (×10^−06) BrdU+ cells/mm^3

Qu. Continue with N#Cc1[nH]c2ccc(Br)cc2c1N
Ans. 30.1 (×10^−06) BrdU+ cells/mm^3

Qu. Continue with O=C(O)Cn1c2ccc(Br)cc2c2cc(C(=O)O)ccc21
Ans. 22.8 (×10^−06) BrdU+ cells/mm^3

Qu. Continue with NC(=O)c1ccc2c(c1)c1cc(Br)ccc1n2CC(=O)O
Ans. 18.8 (×10^−06) BrdU+ cells/mm^3

Qu. Continue with Cc1ccc2c(c1)c1cc(Br)ccc1n2CC(=O)O
Ans. 28.5 (×10^−06) BrdU+ cells/mm^3

Qu. Continue with Cc1ccc2c(c1)c1cc(Br)ccc1n2C
Ans. 25.1 (×10^−06) BrdU+ cells/mm^3

Qu. Continue with NC(Cc1c[nH]c2ccc(Br)cc12)C(=O)O (racemic) [P7C3-S207, 5-bromo-DL-tryptophan, reference compound]
Ans. 32.4 (×10^−06) BrdU+ cells/mm^3

Qu. Continue with O=C(O)Cn1c2ccc(Br)cc2c2cc(C(=O)O)ncc21
Ans. 25.8 (×10^−06) BrdU+ cells/mm^3

Qu. Continue with N#Cc1ccc2[nH]c3ccc(Br)cc3c2c1
Ans. 25.9 (×10^−06) BrdU+ cells/mm^3
